measurement_target: Desmoglein-3 (Homo sapiens)
assay_name: inhibitors of anti-DSG3 scFv binding to DSG3, confirmation, biochemical, cherry pick 1, bead-based, flow cytometry (AID 588466);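 also: 100% = 2% DMSO vehicle and 0% = excess soluble DSG3 blocking control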
assay_setup: Protein G beads with DSG3, scFv-GFP binding, at 10 µM, hits give low values
Out of some 2,100 compounds screened, about 30 (1%) were called active. The list is a sample of the results.
measurement_name: binding response (% of DMSO) (%)
Field format: number, assumed %, no unit text.

[[record]]
compound = "COc1ccc(-c2ccc(-c3nc4c(c(=O)[nH]c(=O)n4Cc4ccccc4)n3C)o2)c([N+](=O)[O-])c1"
measurement_target = "Desmoglein-3 (Homo sapiens)"
numeric_readout = 87.1


Entry CCOC(=O)N1CCC(NC(=O)c2cc3c(-c4ccc(Cl)cc4)nn(C)c3s2)CC1 ; binding response (% of DMSO) = 95.6

binding response (% of DMSO) reading for CC(C)Oc1ccc(C(=O)Nc2ccc(NC(=O)c3ccco3)c(Cl)c2)cc1 : 100

Entry O=C(CSc1nnc(CNC(=O)c2ccc(F)cc2)o1)Nc1nccs1 ; binding response (% of DMSO) = 99.5
